- MEASURED_ON: Der pI (Dermatophagoides pteronyssinus, UniProt P08176)
- Construct: tissue SmithKline-Beecham, U.K (crude mite extract); host or cells: crude house dust mite extract
- Sequence (P08176 99-320): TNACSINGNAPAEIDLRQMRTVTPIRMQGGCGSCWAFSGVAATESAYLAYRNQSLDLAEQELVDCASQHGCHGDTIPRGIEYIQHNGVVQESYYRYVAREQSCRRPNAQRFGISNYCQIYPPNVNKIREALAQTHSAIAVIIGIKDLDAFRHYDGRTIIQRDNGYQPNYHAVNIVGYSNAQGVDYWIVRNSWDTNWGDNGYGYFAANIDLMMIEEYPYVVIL
- METHOD_DESCRIPTION: Der pI substrate assay with FRET peptides (fluorescence, Km, kcat/Km)
- Type: biochemical, house dust mite
- Parameters: key: NS indicates that the peptide was not hydrolysed by Der pI.; NM indicated that the peptide was a substrate for Der pI, but the Km was not measured.; NM^a indicates that the peptide was a substrate for Der pI, and its cleavage was followed by HPLC-MS showing hydrolysis to occur between-Nle-Ser-
- REPORTED_CONDITIONS: purified Der pI; peptides SEQ ID Nos. 1-76
- Description: Using the general techniques described above, the following compounds were prepared and assayed as potential substrates against Der pI purified as described above. […] Plate assays were carried out in 96 well plate format, using 0.1 ug of Der pI per 100 μL assay volume in each well and using 20 μM of the substrate. […] Kinetic measurements were carried out using a Hitachi F-4500 Fluorescence Spectrophotometer.
MEASURED_PARAMETER: substrate or not substrate for Der pI (symbols in Measured Km)

substance=Chex-Val-Ala-Nle-Ser-Tyr(NO2)-NH2 measured_on="Der pI (Dermatophagoides pteronyssinus, UniProt P08176)" meas_value=NM^a
substance=Abz-2.Naph-Val-Ala-Nle-Ser-Tyr(NO2)-Asp-NH2 measured_on="Der pI (Dermatophagoides pteronyssinus, UniProt P08176)" meas_value=NM
substance=n-Bu-Val-Ala-Nle-Ser-Tyr(NO2)-NH2 measured_on="Der pI (Dermatophagoides pteronyssinus, UniProt P08176)" meas_value=NM^a
substance=Abz-3.Pyr-Val-Ala-Nle-Ser-Tyr(NO2)-Asp-NH2 measured_on="Der pI (Dermatophagoides pteronyssinus, UniProt P08176)" meas_value=NM

The reported numbers originate from patent US6528275B1.
